- target-or-system: monkey NPR1 (Macaca fascicularis)
- Sequence (A0A7N9DBT9 entry or part of it): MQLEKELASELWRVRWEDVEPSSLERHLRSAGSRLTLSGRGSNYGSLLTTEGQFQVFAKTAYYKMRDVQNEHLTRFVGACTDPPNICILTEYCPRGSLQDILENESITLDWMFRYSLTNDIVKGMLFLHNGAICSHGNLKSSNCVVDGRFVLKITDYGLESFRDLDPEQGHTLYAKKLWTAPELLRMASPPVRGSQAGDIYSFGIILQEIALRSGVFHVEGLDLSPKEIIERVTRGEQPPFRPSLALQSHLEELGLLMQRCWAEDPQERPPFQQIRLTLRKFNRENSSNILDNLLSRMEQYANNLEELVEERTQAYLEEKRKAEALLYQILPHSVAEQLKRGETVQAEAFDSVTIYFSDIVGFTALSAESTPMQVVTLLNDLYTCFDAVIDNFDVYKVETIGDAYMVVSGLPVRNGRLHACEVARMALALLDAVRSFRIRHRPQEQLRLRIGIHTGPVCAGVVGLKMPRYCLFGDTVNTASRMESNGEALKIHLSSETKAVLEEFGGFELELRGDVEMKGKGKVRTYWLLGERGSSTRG
- assay-explanation: Cellular cGMP production assay, monkey NPR1 expressing CHO-K1 cells (CisBio HTRF)
- Assay type: cell-based
- condition-context: cGMP production, monkey NPR1 CHO-K1 cells, 30 min at 37° C., 12-point dose-response from 30 μM; read-out: Monkey NPR1 AC50
Listed molecules paired with reported AC50
Give the quantity in nM, number only.

1) CC[C@@H](Nc1nc2c(c(N[C@@H](CN3CCC[C@H](C)C3)c3cnn(CC)c3)n1)CN(c1cccc(F)c1)CC2)[C@H]1CC[C@H](C(=O)O)CC1 [Compound 76]	147

AC50 measured on CC[C@H]([C@H]1CC[C@H](C(=O)O)CC1)N(C)c1nc2c(c(N[C@@H](CN3CCC[C@H](O)C3)c3cnn(CC)c3)n1)C[C@H](c1cccc(F)c1)CC2 [Compound 163] = 1270

AC50 measured on CC[C@@H](Nc1nc2c(c(N[C@@H](CN3CCC[C@H](C)C3)c3cnn(C)c3)n1)C[C@](C)(c1ccc(F)cc1)CC2)[C@H]1CC[C@H](C(=O)O)CC1 [Compound 5] = 68

AC50 measured on CC[C@H]([C@H]1CC[C@H](C(=O)O)CC1)N(C)c1nc2c(c(N[C@@H](CN3CCC[C@H](C)C3)c3cnn(C)c3)n1)C[C@H](c1ccccc1)CC2 [Compound 40] = 127

AC50 measured on CC[C@@H]1CCCCN1C[C@H](Nc1nc(N[C@H](CC)[C@H]2CC[C@H](C(=O)O)CC2)nc2c1C[C@H](c1ccccc1)CC2)c1cnn(C)c1 [Compound 96] = 106

AC50 measured on CC[C@@H](Nc1nc2c(c(N[C@@H](CN3CC4CCC3C4)c3cnn(C)c3)n1)C[C@H](c1ccccc1)CC2)[C@H]1CC[C@H](C(=O)O)CC1 (stereo partly shown) [Compound 58] = 149

AC50 measured on CC[C@H]([C@H]1CC[C@H](C(=O)O)CC1)N(C)c1nc2c(c(N[C@@H](CN3CCC[C@H](C)C3)c3cnn(C)c3)n1)C[C@H](c1ccccc1F)CC2 [Compound 48] = 101

AC50 measured on CC[C@H]([C@H]1CC[C@H](C(=O)O)CC1)N(C)c1nc2c(c(N[C@@H](CN3CCC[C@H](O)C3)c3cnn(C)c3)n1)C[C@H](c1ccccc1)CC2 [Compound 129] = 362

AC50 measured on CC[C@H]([C@H]1CC[C@H](C(=O)O)CC1)N(C)c1nc2c(c(N[C@@H](CN3CCCC(F)(F)CC3)c3cnn(C)c3)n1)C[C@H](c1ccccc1)CC2 [Compound 150] = 1040

AC50 measured on C[C@H]1CCCN(C[C@H](Nc2nc(N(C)[C@H](C3CC3)[C@H]3CC[C@H](C(=O)O)CC3)nc3c2C[C@H](c2ccccc2)CC3)c2cnn(C)c2)C1 [Compound 120] = 427

----------
- target-or-system: human NPR1 (Homo sapiens)
- Construct: host or cells: CHO-K1
- Sequence (P16066 33-1061): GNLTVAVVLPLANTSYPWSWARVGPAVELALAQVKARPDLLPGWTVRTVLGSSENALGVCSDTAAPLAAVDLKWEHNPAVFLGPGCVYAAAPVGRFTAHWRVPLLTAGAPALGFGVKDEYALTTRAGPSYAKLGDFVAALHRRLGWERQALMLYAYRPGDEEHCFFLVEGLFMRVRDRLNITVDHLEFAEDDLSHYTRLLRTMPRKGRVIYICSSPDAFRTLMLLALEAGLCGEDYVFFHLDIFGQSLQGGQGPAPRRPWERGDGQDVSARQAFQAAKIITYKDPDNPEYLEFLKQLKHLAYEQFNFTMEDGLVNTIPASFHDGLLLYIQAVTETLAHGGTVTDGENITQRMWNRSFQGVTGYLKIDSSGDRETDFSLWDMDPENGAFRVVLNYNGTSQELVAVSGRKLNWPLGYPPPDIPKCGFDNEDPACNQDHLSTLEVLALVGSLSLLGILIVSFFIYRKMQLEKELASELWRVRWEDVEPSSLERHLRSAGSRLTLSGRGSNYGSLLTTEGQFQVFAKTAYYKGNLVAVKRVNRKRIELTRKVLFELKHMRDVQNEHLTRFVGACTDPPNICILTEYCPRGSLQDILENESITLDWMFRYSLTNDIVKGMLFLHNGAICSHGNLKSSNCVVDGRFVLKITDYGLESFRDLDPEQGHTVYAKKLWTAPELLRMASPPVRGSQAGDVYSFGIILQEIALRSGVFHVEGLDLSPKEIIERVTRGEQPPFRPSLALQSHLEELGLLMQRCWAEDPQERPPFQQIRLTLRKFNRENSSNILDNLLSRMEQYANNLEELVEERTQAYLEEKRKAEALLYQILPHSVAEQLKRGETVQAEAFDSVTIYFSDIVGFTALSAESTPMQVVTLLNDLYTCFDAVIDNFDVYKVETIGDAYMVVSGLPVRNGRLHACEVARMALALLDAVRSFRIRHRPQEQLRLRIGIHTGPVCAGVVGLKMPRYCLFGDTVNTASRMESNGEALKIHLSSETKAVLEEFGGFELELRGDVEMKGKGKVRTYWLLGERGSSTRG
- assay-explanation: Cellular cGMP production assay, human NPR1 expressing CHO-K1 cells (CisBio HTRF)
- Format: cell-based
- condition-context: cGMP production, 30 min at 37° C., 12-point dose-response from 30 μM
Simple rule here: AC50 less than 200 nM is t, otherwise f.

Examples with answers:
1. CC[C@@H](N(C)c1nc2c(c(N[C@@H](CN3C4CCCC3CC4)c3cnn(C)c3)n1)C[C@](C)(c1ccccc1)CC2)C12CC(C(=O)O)(C1)C2	t
2. CC[C@H]([C@H]1CC[C@H](C(=O)O)CC1)N(C)c1nc2c(c(N[C@@H](CN3C4CCCC3COC4)c3cnn(C)c3)n1)C[C@H](c1ccccc1)CC2	f
3. CC[C@H]([C@H]1CC[C@H](C(=O)O)CC1)N(C)c1nc2c(c(N[C@@H](CN3CCC[C@@H]4C[C@@H]43)c3cnn(C)c3)n1)C[C@H](c1ccccc1)CC2	f
4. CC[C@H]([C@H]1CC[C@H](CC(=O)O)CC1)N(C)c1nc2c(c(N[C@@H](CN3CCC[C@H](C)C3)c3cnn(C)c3)n1)C[C@H](c1cccc(F)c1)CC2	t
5. CC[C@@H](Nc1nc2c(c(N[C@@H](CN3CCCCC3)c3cnn(CC)c3)n1)C[C@@H](c1cccc(F)c1)CC2)[C@H]1CC[C@H](C(=O)O)CC1	t

Q: Item CC[C@H]([C@H]1CC[C@H](C(=O)O)CC1)N(C)c1nc2c(c(N[C@@H](CN3CCCC(F)C3)c3cnn(C)c3)n1)C[C@H](c1ccccc1)CC2 (some centres unmarked) : AC50 beneath 200 nM, strictly?
A: f

Q: Item CC[C@@H](Nc1nc2c(c(N[C@@H](CN3C4CC5CC(C4)CC3C5)c3cnn(C)c3)n1)C[C@H](c1ccccc1)CC2)[C@H]1CC[C@H](C(=O)O)CC1 : AC50 beneath 200 nM, strictly?
A: f
